- assay system: UniProtKB Q9UBN7
- Sequence (Q9UBN7 whole entry): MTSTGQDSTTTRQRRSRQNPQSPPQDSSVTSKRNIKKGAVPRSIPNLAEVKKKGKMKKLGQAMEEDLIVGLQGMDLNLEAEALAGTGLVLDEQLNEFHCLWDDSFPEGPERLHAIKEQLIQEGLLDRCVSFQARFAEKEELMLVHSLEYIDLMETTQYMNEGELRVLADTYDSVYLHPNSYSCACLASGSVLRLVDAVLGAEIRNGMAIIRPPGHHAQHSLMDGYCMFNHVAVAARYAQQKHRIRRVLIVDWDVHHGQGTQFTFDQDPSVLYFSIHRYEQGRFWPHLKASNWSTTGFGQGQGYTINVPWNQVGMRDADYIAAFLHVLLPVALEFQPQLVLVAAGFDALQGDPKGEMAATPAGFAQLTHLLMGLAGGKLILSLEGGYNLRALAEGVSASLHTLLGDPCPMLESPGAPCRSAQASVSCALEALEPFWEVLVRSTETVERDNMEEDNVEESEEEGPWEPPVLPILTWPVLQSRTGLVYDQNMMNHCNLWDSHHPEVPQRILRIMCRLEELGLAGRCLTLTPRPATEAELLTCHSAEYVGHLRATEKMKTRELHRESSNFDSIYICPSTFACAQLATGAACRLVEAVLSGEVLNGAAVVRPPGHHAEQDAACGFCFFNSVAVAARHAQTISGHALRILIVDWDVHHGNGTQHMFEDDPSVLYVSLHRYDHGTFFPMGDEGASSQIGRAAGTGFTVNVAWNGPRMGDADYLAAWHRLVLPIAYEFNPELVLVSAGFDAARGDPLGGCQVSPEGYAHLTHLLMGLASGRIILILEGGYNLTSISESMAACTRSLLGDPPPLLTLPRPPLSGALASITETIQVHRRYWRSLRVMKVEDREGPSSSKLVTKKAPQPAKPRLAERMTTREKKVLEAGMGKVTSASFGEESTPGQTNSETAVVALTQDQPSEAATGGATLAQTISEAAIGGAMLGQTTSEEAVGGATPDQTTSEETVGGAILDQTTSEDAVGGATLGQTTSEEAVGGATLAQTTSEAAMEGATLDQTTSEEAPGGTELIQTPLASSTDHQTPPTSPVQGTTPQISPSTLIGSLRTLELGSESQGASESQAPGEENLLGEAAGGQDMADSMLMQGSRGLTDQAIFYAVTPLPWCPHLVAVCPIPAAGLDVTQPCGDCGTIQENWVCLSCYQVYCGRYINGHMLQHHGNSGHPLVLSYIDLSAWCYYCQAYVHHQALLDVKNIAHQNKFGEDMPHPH
- condition details: read-out: HDAC6 IC50
pIC50: −log10 of the molar value.
test readout: pIC50

compound | test readout | measured number
CC(C)(Nc1ncc(C(=O)NO)cn1)c1ccc(F)cc1 [Compound 68] | pIC50 | 8.52

I = CC(C)(Nc1ncc(C(=O)NO)cn1)c1ccc(C(F)(F)F)cc1F [Compound 86]
II = CC(Nc1ncc(C(=O)NO)cn1)c1ccncc1 (stereo not shown) [Compound 85]
III = O=C(NO)c1cnc(NC2(c3ccccc3Cl)CC2)nc1 [Compound 90]
Please put the entries in order of rising pIC50. A ranking is expressed here by listing the labels in the requested order.
I, II, III

P = O=C(NO)c1cnc(Nc2cc(C(F)(F)F)cc(C(F)(F)F)c2)nc1 [Compound 15]
Q = CC(C)(Nc1ncc(C(=O)NO)cn1)c1ccc(F)cc1F [Compound 70]
Endpoint returns the identifier whose pIC50 is numerically larger, either P or Q . Pick one and reply with its label.
Q
(Q: 8.52, P: 7.85)

I = Cc1cc(Nc2ncc(C(=O)NO)cn2)ccn1 [Compound 31]
II = O=C(NO)c1cnc(NCc2ccc(F)cc2C(F)(F)F)nc1 [Compound 57]
Of the two listed items, which has the higher pIC50? First: I Second: II Write the label of whichever entry you select.
II
